testedTarget: ZFP SBS#699 (synthetic)
Sequence (chain, as listed by the source): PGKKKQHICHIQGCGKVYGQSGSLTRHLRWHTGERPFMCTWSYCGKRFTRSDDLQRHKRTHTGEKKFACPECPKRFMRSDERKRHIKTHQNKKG
experimentalDetails: EMSA
testSettings: tags: MBP fusion
propertyName: pKd
Answers are plain numbers, as −log10 of the molar value.

Task: Give the value of pKd reported for the following: GCGGCGGCAG (dsDNA) DNA 1: GCGGCGGCAG DNA 2: CTGCCGCCGC
Output: 7.67
